Data provenance is patent US12528814B2.

I'd appreciate it if you could supply DC50 values for the items below.
- TARGET OF ASSAY: IRAK4 (Homo sapiens (Human), UniProt Q9NWZ3)
- Sequence (Q9NWZ3 whole entry): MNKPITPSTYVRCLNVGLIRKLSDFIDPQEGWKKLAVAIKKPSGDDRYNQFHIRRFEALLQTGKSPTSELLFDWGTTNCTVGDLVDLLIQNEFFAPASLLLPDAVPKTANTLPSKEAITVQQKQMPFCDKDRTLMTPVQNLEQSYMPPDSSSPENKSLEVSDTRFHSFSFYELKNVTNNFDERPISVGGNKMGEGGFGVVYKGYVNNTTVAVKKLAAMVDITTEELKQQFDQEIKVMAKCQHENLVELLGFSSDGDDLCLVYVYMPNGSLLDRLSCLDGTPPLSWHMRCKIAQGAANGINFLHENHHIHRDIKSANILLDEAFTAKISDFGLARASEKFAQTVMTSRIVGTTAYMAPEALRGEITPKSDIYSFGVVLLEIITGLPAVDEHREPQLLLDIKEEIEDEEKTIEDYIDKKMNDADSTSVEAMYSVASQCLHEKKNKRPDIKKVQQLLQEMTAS
- TEST NAME: IRAK4 Degradation HiBiT Assay
- CONDITIONS USED: read-out: Cellular IRAK4 HiBiT: DC50; Table 4; HiBiT-tagged Jurkat cells, 4 hrs
Reply with just the number (in nM).

Please respond with reported DC50 (system IRAK4 (Homo sapiens (Human), UniProt Q9NWZ3)) for CC(C)Nc1cc(-c2ccc3cc(C#N)cnn23)ncc1-c1nnc(N2CCC(NC(=O)C3CCN(c4ccc5c(c4)C(=O)N(C4CCC(=O)NC4=O)C5=O)CC3)CC2)s1 (stereo not drawn) .
188

Please respond with reported DC50 (system IRAK4 (Homo sapiens (Human), UniProt Q9NWZ3)) for CC(C)Nc1cc(-c2ccc3cc(C#N)cnn23)ncc1-c1nnc(N2CCN(CCCCc3cccc4c3CN(C3CCC(=O)NC3=O)C4=O)CC2)s1 (stereo not drawn) .
53

Please respond with reported DC50 (system IRAK4 (Homo sapiens (Human), UniProt Q9NWZ3)) for CC(C)Nc1cc(-c2ccc3cc(C#N)cnn23)ncc1-c1nnc(N2CCN(C(=O)C3CCN(Cc4ccc5c(c4)C(=O)N(C4CCC(=O)NC4=O)C5=O)CC3)CC2)s1 (stereo not drawn) .
25.6

----------
I'd appreciate it if you could supply Dmax values for the items below.
- TARGET OF ASSAY: IRAK4 (Homo sapiens (Human))
- TEST NAME: IRAK4 Degradation HiBiT Assay
- CONDITIONS USED: Jurkat, read-out: Cellular IRAK4 HiBiT: Dmax, Table 4; HiBiT-tagged Jurkat cells, 4 hrs
Reply with just the number (in %).

Give a short answer stating reported Dmax for N#Cc1cnn2c(-c3cc(NC4CCOCC4)c(-c4nnc(C56CCC(NC(=O)CCOCCOCCNc7cccc8c7C(=O)N(C7CCC(=O)NC7=O)C8=O)(CC5)CC6)s4)cn3)ccc2c1 (stereo not drawn) [Example 1] .
65

Give a short answer stating reported Dmax for CC(C)Nc1cc(-c2ccc3cc(C#N)cnn23)ncc1-c1nnc(N2CCN(CCCCc3ccc4c(c3)CN(C3CCC(=O)NC3=O)C4=O)CC2)s1 (stereo not drawn) [Example 26] .
87

Give a short answer stating reported Dmax for CNc1cc(-c2ccc3cc(C#N)cnn23)ncc1-c1nnc([C@H]2CC[C@H](NC(=O)CCCCCCCNc3ccc4c(c3)C(=O)N(C3CCC(=O)NC3=O)C4=O)CC2)s1 (stereo partly drawn) [Example 67] .
53

----------
- TARGET OF ASSAY: IRAK4 (Homo sapiens (Human), UniProt Q9NWZ3)
- TEST NAME: IRAK4 Degradation HiBiT Assay
- CONDITIONS USED: read-out: Cellular IRAK4 HiBiT: DC50; Table 5; multiple runs; HiBiT-tagged Jurkat cells, 4 hrs
PROPERTY: DC50

Give a short answer stating reported DC50 for CC(C)Nc1cc(-c2ccc3cc(C#N)cnn23)ncc1-c1nnc(N2CCN(CC3CCN(c4ccc(C(=O)N(C)C5CCC(=O)NC5=O)cc4)CC3)CC2)s1 (centres unmarked) .
326 nM

Give a short answer stating reported DC50 for CNc1cc(-c2ccc3cc(C#N)cnn23)ncc1-c1nnc(N2CCCC3(CN(Cc4ccc5c(c4)CN(C4CCC(=O)NC4=O)C5=O)C3)C2)s1 (centres unmarked) .
> 9980 nM

Give a short answer stating reported DC50 for CC(C)Nc1cc(-c2ccc3cc(C#N)cnn23)ncc1-c1nnc(N2CCN(CCCCc3ccc4c(c3)CN(C3CCC(=O)NC3=O)C4=O)CC2)s1 (centres unmarked) .
94.1 nM

Give a short answer stating reported DC50 for CC(C)Nc1cc(-c2ccc3cc(C#N)cnn23)ncc1-c1nnc(N2CCN(CCCc3ccc4c(c3)CN(C3CCC(=O)NC3=O)C4=O)CC2)s1 (centres unmarked) .
70.7 nM

Give a short answer stating reported DC50 for CC(C)Nc1cc(-c2ccc3cc(C#N)cnn23)ncc1-c1nnc(N2CCN(CC3CCN(Cc4ccc5c(c4)C(=O)N(C4CCC(=O)NC4=O)C5=O)CC3)CC2)s1 (centres unmarked) .
> 970 nM

Give a short answer stating reported DC50 for CC(C)Nc1cc(-c2ccc3cc(C#N)cnn23)ncc1-c1nnc(N2CCN(C(=O)CCOCCNc3cccc4c3C(=O)N(C3CCC(=O)NC3=O)C4=O)CC2)s1 (centres unmarked) .
229 nM

Give a short answer stating reported DC50 for Cc1ncsc1-c1ccc(CNC(=O)[C@@H]2C[C@@H](O)CN2C(=O)[C@@H](NC(=O)C2(F)CC2)C(C)(C)C)c(OCCOCCOCCOCCOCCOCCC(=O)N2CCN(c3nnc(-c4cnc(-c5ccc6cc(C#N)cnn56)cc4NC(C)C)s3)CC2)c1 .
691 nM

Give a short answer stating reported DC50 for CNc1cc(-c2ccc3cc(C#N)cnn23)ncc1-c1nnc([C@H]2CC[C@H](NC(=O)CCCCCNc3cccc4c3C(=O)N(C3CCC(=O)NC3=O)C4=O)CC2)s1 (some centres unmarked) .
11.2 nM

Give a short answer stating reported DC50 for CNc1cc(-c2ccc3cc(C#N)cnn23)ncc1-c1nnc([C@H]2CC[C@H](NC(=O)CCOCCOCCOCCNc3cccc4c3C(=O)N(C3CCC(=O)NC3=O)C4=O)CC2)s1 (some centres unmarked) .
10.8 nM

Give a short answer stating reported DC50 for CNc1cc(-c2ccc3cc(C#N)cnn23)ncc1-c1nnc(N2CC3CCC(C2)N3C(=O)C[C@H](NC(=O)[C@@H]2C[C@@H](O)CN2C(=O)[C@@H](NC(=O)C2(F)CC2)C(C)(C)C)c2ccc(-c3scnc3C)cc2)s1 .
91.6 nM

Give a short answer stating reported DC50 for CNc1cc(-c2ccc3cc(C#N)cnn23)ncc1-c1nnc(C23CCC(NC(=O)CCCCCNc4cccc5c4C(=O)N(C4CCC(=O)NC4=O)C5=O)(CC2)CC3)s1 (centres unmarked) .
43.8 nM

----------
- TARGET OF ASSAY: IRAK4 (Homo sapiens (Human), UniProt Q9NWZ3)
- TEST NAME: IRAK4 Degradation HiBiT Assay
- CONDITIONS USED: read-out: Cellular IRAK4 HiBiT: DC50; Table 5; multiple runs; HiBiT-tagged Jurkat cells, 4 hrs
I'd appreciate it if you could supply DC50 values for the items below.
Reply with just the number (in nM).

Give a short answer stating reported DC50 for CNc1cc(-c2ccc3cc(C#N)cnn23)ncc1-c1nnc(N2CC3CCC(C2)N3C2CCN(Cc3ccc4c(c3)C(=O)N(C3CCC(=O)NC3=O)C4=O)CC2)s1 (stereo not shown) [Example 165] .
21

Give a short answer stating reported DC50 for CNc1cc(-c2ccc3cc(C#N)cnn23)ncc1-c1nnc(C23CCC(NC(=O)C[C@H](NC(=O)[C@@H]4C[C@@H](O)CN4C(=O)[C@@H](NC(=O)C4(F)CC4)C(C)(C)C)c4ccc(-c5scnc5C)cc4)(CC2)CC3)s1 [Example 140] .
88.9

Give a short answer stating reported DC50 for CNc1cc(-c2ccc3cc(C#N)cnn23)ncc1-c1nnc(N2CCN(C(=O)CN3CCN(c4ccc5c(c4)C(=O)N(C4CCC(=O)NC4=O)C5=O)CC3)CC2)s1 (stereo not shown) [Example 94] .
321

Give a short answer stating reported DC50 for CN[C@@H](C)C(=O)N[C@H](C(=O)N1C[C@@H](NC(=O)CCCCCCC(=O)N2CCN(c3nnc(-c4cnc(-c5ccc6cc(C#N)cnn56)cc4NC(C)C)s3)CC2)C[C@H]1C(=O)N[C@@H]1CCCc2ccccc21)C1CCCCC1 [Example 52] .
422

Give a short answer stating reported DC50 for CNc1cc(-c2ccc3cc(C#N)cnn23)ncc1-c1nnc(N2CC3(CCN(C[C@@H]4CCN(c5ccc6c(c5)C(=O)N(C5CCC(=O)NC5=O)C6=O)C4)CC3)C2)s1 (stereo partly shown) [Example 181] .
6.94

Give a short answer stating reported DC50 for CC(C)Nc1cc(-c2ccc3cc(C#N)cnn23)ncc1-c1nnc(N2CCN(C3CCN(C(=O)Cc4ccc5c(c4)CN(C4CCC(=O)NC4=O)C5=O)CC3)CC2)s1 (stereo not shown) [Example 75] .
8.59

Give a short answer stating reported DC50 for CC(C)Nc1cc(-c2ccc3cc(C#N)cnn23)ncc1-c1nnc(N2CCN(C(=O)C3CCN(C[C@H]4CCN(c5ccc6c(c5)C(=O)N(C5CCC(=O)NC5=O)C6=O)C4)CC3)CC2)s1 (stereo partly shown) [Example 12] .
98.1

Give a short answer stating reported DC50 for Cc1ncsc1-c1ccc(CNC(=O)[C@@H]2C[C@@H](O)CN2C(=O)[C@@H](NC(=O)C2(F)CC2)C(C)(C)C)c(OCCCCCCCC(=O)N2CCN(c3nnc(-c4cnc(-c5ccc6cc(C#N)cnn56)cc4NC(C)C)s3)CC2)c1 [Example 43] .
1090

Give a short answer stating reported DC50 for CNc1cc(-c2ccc3cc(C#N)cnn23)ncc1-c1nnc(N2CCC(N3CCN(C(=O)c4ccc5c(c4)C(=O)N(C4CCC(=O)NC4=O)C5=O)CC3)CC2)s1 (stereo not shown) [Example 186] .
17.1
